# Measured Target: human CD33 W167A (human, UniProt P20138 18-364)
# Sequence (P20138 18-364 W167A limits assumed): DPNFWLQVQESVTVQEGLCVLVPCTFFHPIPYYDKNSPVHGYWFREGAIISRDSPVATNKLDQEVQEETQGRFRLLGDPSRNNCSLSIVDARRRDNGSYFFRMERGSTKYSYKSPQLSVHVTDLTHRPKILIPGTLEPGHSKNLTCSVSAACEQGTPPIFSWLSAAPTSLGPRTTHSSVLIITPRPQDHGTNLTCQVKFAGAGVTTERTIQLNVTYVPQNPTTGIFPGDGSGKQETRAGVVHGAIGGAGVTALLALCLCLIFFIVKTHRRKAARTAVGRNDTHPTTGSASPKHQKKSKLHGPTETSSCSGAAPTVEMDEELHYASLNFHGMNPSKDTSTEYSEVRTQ
# Method Notes: flow cytometry on HEK293-T, alanine scan
Value Kind: Mean % WT Binding (% WT binding)

[[record]]
binder = "Refmab #3 (antibody, V domains shown, The alanine scan used IgG or Fab) VH: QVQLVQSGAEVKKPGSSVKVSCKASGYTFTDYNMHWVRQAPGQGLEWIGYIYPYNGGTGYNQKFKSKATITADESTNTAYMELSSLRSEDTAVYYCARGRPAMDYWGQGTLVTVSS VL: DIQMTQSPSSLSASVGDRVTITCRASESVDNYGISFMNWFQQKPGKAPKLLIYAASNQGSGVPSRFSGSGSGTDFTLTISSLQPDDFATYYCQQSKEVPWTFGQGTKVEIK"
numeric_readout = 129

[[record]]
binder = "Refmab #1 (antibody, V domains shown, The alanine scan used IgG or Fab; also called hP67.6) VH: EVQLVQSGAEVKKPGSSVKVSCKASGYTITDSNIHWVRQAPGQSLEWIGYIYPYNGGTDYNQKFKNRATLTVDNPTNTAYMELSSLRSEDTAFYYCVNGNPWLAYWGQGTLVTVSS VL: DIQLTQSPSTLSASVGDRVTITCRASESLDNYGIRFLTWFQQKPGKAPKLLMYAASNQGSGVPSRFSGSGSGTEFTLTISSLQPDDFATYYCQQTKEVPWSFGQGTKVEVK"
numeric_readout = 89.4

[[record]]
binder = "Refmab #2 (antibody, V domains shown, The alanine scan used IgG or Fab) VH: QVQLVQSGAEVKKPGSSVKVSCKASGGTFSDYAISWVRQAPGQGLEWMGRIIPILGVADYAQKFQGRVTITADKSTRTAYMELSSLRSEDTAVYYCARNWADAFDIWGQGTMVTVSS VL: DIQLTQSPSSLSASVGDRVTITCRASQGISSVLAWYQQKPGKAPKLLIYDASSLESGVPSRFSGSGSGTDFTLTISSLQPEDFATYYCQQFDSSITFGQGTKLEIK"
numeric_readout = 109

[[record]]
binder = "Refmab #4 (antibody, V domains shown, The alanine scan used IgG or Fab) VH: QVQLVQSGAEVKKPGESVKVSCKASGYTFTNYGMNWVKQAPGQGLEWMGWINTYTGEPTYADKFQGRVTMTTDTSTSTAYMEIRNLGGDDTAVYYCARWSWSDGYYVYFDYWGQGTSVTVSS VL: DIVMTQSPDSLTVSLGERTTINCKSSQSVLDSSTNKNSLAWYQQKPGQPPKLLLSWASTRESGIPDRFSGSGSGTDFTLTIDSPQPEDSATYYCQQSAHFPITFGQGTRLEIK"
numeric_readout = 112


Origin of the recorded values: patent US20260242735A1
